assay: CYP3A inducer study: pharmacokinetics of naldemedine alone or with rifampin; assay type: in vivo, human; settings: human, plasma, oral, 0.2 mg, t1/2,z, naldemedine 0.2 mg alone or with rifampin 600 mg QD; n = 14; geometric mean (CV %)
attributeMeasured: half-life (h)
Number in h, nothing else.

Look up half-life for this compound: CC(C)(NC(=O)C1=C(O)[C@@H]2Oc3c(O)ccc4c3[C@@]23CCN(CC2CC2)[C@H](C4)[C@]3(O)C1)c1nc(-c2ccccc2)no1
11.7

* * *

format: in vivo, human; conditions: human, plasma, oral, 0.2 mg, λz, Cohort 1: naldemedine 0.2 mg alone or with itraconazole 200 mg; n = 14; mean (SD)
attributeMeasured: k el (s⁻¹)
Number in s⁻¹, nothing else.

Look up k el for this compound: CC(C)(NC(=O)C1=C(O)[C@@H]2Oc3c(O)ccc4c3[C@@]23CCN(CC2CC2)[C@H](C4)[C@]3(O)C1)c1nc(-c2ccccc2)no1
1.9e-05
